System: Calu-3
Assay: cell viability relative to DMSO; higher = less toxic
Settings: 72 h; 10 nM
Answer each item with its documented cell viability.
Answers are plain numbers, in %.

Record excerpt, results attached:
CCc1cc(-c2[nH]nc(C)c2-c2ccc3c(c2)OCCO3)c(O)cc1O :: 94.6
COC(=O)Nc1nc2cc(C(=O)c3ccccc3)ccc2[nH]1 [mebendazole] :: 107
CC1(C)S[C@@H]2[C@H](N3C(=O)[C@@H](c4ccccc4)NC3(C)C)C(=O)N2[C@H]1C(=O)O [hetacillin] :: 94.3

Below are some compounds; for each one, tell me its cell viability.
1. COc1ccc(-c2coc3cc(O)cc(O)c3c2=O)cc1 [4-methylgenistein]
2. Cn1c(=O)c2c(ncn2CC(O)CO)n(C)c1=O (stereo not given) [dyphylline]

Response line:
1. 99
2. 99.6

Below are some compounds; for each one, tell me its cell viability.
1. CCn1cc(-c2cccc(C(F)(F)F)c2)c2sc(C(=N)NC3CCS(=O)(=O)CC3)cc2c1=O [I-BRD9]
2. C[S+](CC[C@H](N)C(=O)O)C[C@H]1O[C@@H](n2cnc3c(N)ncnc32)[C@H](O)[C@@H]1O (stereo not given in full) [ademetionine]
3. CC(C)(O)C(=O)N1CCN(c2ccc(C(F)(F)F)c(C3=C(c4c[nH]c5ccccc45)C(=O)NC3=O)c2)CC1
4. Cc1ccc(-c2ncc[nH]2)cc1NC(=O)c1ccc(OCc2ccccn2)cc1
5. O=C(O)c1ccc2c(c1)nc(Nc1cccc(Cl)c1)c1ccncc12 [CX-4945]
6. CCCCCCCCCCCCCCCC[n+]1ccccc1 [cetylpyridinium]
7. O=c1[nH]c2cc(C(F)(F)F)c(N3CCOCC3)cc2n(CP(=O)(O)O)c1=O

Response line:
99.5
106
93.2
97.8
103
99.9
106

Below are some compounds; for each one, tell me its cell viability.
1. CN1C[C@@H](NS(=O)(=O)N(C)C)C[C@@H]2c3cccc4c3c(cn4C)C[C@H]21 [mesulergine]
2. O=[N+]([O-])/N=C1\NCCN1Cc1ccc(Cl)nc1 [imidacloprid]
3. C[C@]12CCC(=O)C=C1C=C[C@@H]1[C@@H]2CC[C@@]2(C)[C@H]1CC[C@@]2(O)CCC(=O)O [potassium-canrenoate]
4. COc1cc(COc2cc(N)c(Cl)cc2C(=O)CCC2CCN(CCNS(C)(=O)=O)CC2)cc(OC)c1
5. C=CCc1ccc(O)c(-c2cc(CC=C)ccc2O)c1 [magnolol]

Response line:
1. 106
2. 98.5
3. 94.7
4. 106
5. 90.3

Below are some compounds; for each one, tell me its cell viability.
1. CC1(C)S[C@@H]2[C@H](NC(=O)[C@H](N)c3ccc(O)cc3)C(=O)N2[C@H]1C(=O)O [amoxicillin]
2. O=C(O)CNC(=O)c1nc(Cl)c2ccccc2c1O [FG-2216]
3. C[C@@H]1NC(C)(C)CO[C@@]1(O)c1cccc(Cl)c1 [radafaxine]
4. C=C[C@@](C)(/C=C/c1ccc(O)cc1)CCC=C(C)C [bakuchiol]

Response line:
[110, 98.5, 92.4, 94.9]

Below are some compounds; for each one, tell me its cell viability.
1. C[C@@H](c1ccc2nccn2c1)n1nnc2ncc(-c3cnn(C)c3)nc21 [savolitinib]
2. O=C(NCC1CCCCN1)c1cc(OCC(F)(F)F)ccc1OCC(F)(F)F (stereo not given) [flecainide]
3. CO[C@H]1[C@H](O)[C@@H](O)[C@@H](O)[C@H](O)[C@@H]1O [pinitol]
4. CCC(=O)O[C@]1(C(=O)CCl)[C@@H](C)C[C@H]2[C@@H]3CCC4=CC(=O)C=C[C@]4(C)[C@@]3(F)[C@@H](O)C[C@@]21C [clobetasol-propionate]

Response line:
85.2
100
100
96

Below are some compounds; for each one, tell me its cell viability.
1. CN(CCOP(=O)(O)O)C(=N)N [creatinol-phosphate]
2. CC(C)[C@@H](C(=O)Nc1nccs1)c1ccc(Cl)cc1 [4-CMTB]

Response line:
94.2
107

Below are some compounds; for each one, tell me its cell viability.
1. C[C@]12CC[C@H](O)CC1=CC[C@@H]1[C@@H]2CC[C@]2(C)C(n3cnc4ccccc43)=CC[C@@H]12 [galeterone]
2. CSc1cc2c(cc1C(F)(F)F)N(C(=O)Nc1cccnc1)CC2
3. CC(C)c1ccc(C(=O)c2cccs2)c(SCCCCCCCCN(C)C)n1

Response line:
95
83.3
120

Below are some compounds; for each one, tell me its cell viability.
1. COC(=O)CCc1ccc(OCC(O)CNC(C)C)cc1 (stereo not given) [esmolol]
2. O=C(O[C@H]1[C@H](OC(=O)c2cccnc2)[C@@H](OC(=O)c2cccnc2)[C@H](OC(=O)c2cccnc2)[C@@H](OC(=O)c2cccnc2)[C@H]1OC(=O)c1cccnc1)c1cccnc1 [inositol-hexanicotinate]
3. CC(C)(CO)CCCCCCC(C)(C)CO [gemcadiol]
4. Cc1cn([C@H]2C[C@H](N=[N+]=[N-])[C@@H](CO)O2)c(=O)[nH]c1=O [zidovudine]
5. OCCOc1ccc(/C(=C(/CCCl)c2ccccc2)c2ccccc2)cc1 [ospemifene]

Response line:
1: 99.8; 2: 93.3; 3: 93.5; 4: 89.6; 5: 103

The reported measurements were obtained from the supplement of paper PMC13380429.
